# test.description: Compound was evaluated for concentration that caused 50% inhibition of yeast Farnesyltransferase (expressed as a GST fusion protein in Escherichia coli)
Listed here: items and their measured pIC50.
Remember the convention: pIC50 equals -log10 of concentration in molar.

CSCC[C@H](NC(=O)[C@H](Cc1ccccc1)NC[C@@H](NC[C@@H](N)CS)C(C)C)C(=O)O	6.52

Now look at this entry.
Q: Can you share its pIC50? I mean this compound: CSCC[C@H](NC(=O)[C@@H]1CC[C@@H]2CC[C@](Cc3ccccc3)(NC(=O)[C@H](CS)NC(=O)OCC3c4ccccc4-c4ccccc43)C(=O)N21)C(=O)O
Ans: 5.30
